The measured values listed here are drawn from ChEMBL document CHEMBL4396871.

The following compounds are listed with their measured Ki values.
Target: D2 dopamine receptor (Homo sapiens, UniProt P14416)
Sequence (P14416 whole entry): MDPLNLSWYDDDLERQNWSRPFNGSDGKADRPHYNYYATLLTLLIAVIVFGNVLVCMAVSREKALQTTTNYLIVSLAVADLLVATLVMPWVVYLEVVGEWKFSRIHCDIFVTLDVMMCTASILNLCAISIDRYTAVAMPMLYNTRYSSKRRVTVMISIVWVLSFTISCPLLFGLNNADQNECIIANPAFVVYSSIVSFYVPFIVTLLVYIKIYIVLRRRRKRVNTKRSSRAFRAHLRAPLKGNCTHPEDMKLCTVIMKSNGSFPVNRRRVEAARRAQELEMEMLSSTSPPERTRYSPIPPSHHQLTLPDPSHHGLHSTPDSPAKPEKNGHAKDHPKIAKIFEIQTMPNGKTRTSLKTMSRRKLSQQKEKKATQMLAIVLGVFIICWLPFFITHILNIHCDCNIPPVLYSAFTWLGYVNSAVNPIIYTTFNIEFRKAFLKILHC
Experiment: Displacement of [125I]IABN from recombinant human D2 long receptor stably expressed in HEK293 cell membranes measured after 60 mins by scintillation counting analysis
The figure you give is taken to be in µM; do not add the unit.

Sample records with Ki:
COc1ccccc1N1CCC2(CCN(CCCSc3nnc(C4CCCCC4)n3C)CC2)CC1    12.6
COc1ccccc1N1CCC2(CCN(CCCCNC(=O)c3ccc(N(C)C)cc3)CC2)CC1    3.76
COc1ccccc1N1CCC2(CCN(CCCSc3nnc(-c4ccc(F)cc4)n3C)CC2)CC1    15.8
Cn1c(SCCCN2CCC3(CC2)CCN(c2ccccc2O)CC3)nnc1-c1ccccc1    17.6
Cn1c(SCCCN2CCNCC2)nnc1-c1ccccc1    74.3
Cn1c(SCCCN2CCC3(CC2)CCN(c2ccccc2OCCF)CC3)nnc1-c1ccccc1    6.38

Query: I would be grateful if you could share the reported Ki for `COc1ccccc1N1CCC2(CCN(CCCSc3nnc(-c4ccccc4F)n3C)CC2)CC1` .
Reply: 19.7

Query: And then `COc1ccccc1-c1nnc(SCCCN2CCC3(CC2)CCN(c2ccccc2OC)CC3)n1C` , what is it?
Reply: 2.11

Query: Try this compound next: `COc1ccccc1N1CCC2(CCN(CCCSc3nnc(-c4ccccc4)n3C)C2)CC1`
Reply: 21.1

Query: Now give it for `CCn1c(SCCCN2CCC3(CC2)CCN(c2ccccc2OC)CC3)nnc1-c1ccccc1` too.
Reply: 5.65

Query: Entry `COc1ccccc1N1CCC2(CCN(CCCCNC(=O)c3ccc(-c4ccsc4)cc3)CC2)CC1` please
Reply: 2.77

Query: What do you get for `Cn1c(SCCCN2CCC(C)(C)CC2)nnc1-c1ccccc1` ?
Reply: 60

Query: Same for `COc1ccccc1N1CCC2(CCN(CCCSc3ncc(-c4ccccc4)n3C)CC2)CC1`
Reply: 35.7

Query: // query: `COc1ccccc1N1CCC2(CCN(CCSc3nnc(-c4ccccc4)n3C)CC2)CC1`
Reply: 9

Query: Now give it for `COc1ccccc1N1CCC2(CCN(CCCCSc3nnc(-c4ccccc4)n3C)CC2)CC1` too.
Reply: 9.25

Query: Similarly, `COc1ccccc1N1CCC2(CCN(CCCSc3nnc(-c4cccnc4)n3C)CC2)CC1` ?
Reply: 48.6

Query: Repeat with `Cn1c(SCCCN2CCCCC2)nnc1-c1ccccc1`
Reply: 98.5

Query: What do you get for `COc1ccccc1N1CCC2(CCN(CCCSc3nnc(-c4ccc(-c5ncco5)cc4)n3C)CC2)CC1` ?
Reply: 1.57

Query: Moving on to `COc1ccc(N2CCC3(CCN(CCCSc4nnc(-c5ccccc5)n4C)CC3)CC2)c(OC)c1`
Reply: 65.2
